Tested on: Staphylococcus aureus
experimental_details: microbe, parasite or virus in culture
condition_set: ATCC 43300, 18 h, ASSAY_TEST Inhibition of Bacterial Growth, detection method Absorption (OD600), MEDIA CAMHB, plate type 384well, NBS, CORNING #3640
Description: Antibacterial activity against Staphylococcus aureus MRSA ATCC 43300 (CO-ADD:GP_020); MIC in CAMBH media, using NBS plates, by OD(600)
reported_metric: MIC (µg/mL)
Please reply with the bare figure in µg/mL and do not write the unit itself.

[Q] What MIC value was documented for this compound, COc1ccc(C(=N)Nc2cc(C(=O)Nc3nc(C(=O)NCCN4CCOCC4)c(CCc4ccccc4)s3)n(C)c2)cc1 ?
[A] 16

[Q] # query: MIC of entry CC(=O)Nc1cc(C(=O)Nc2cc(C(=O)Nc3nc(C(=O)NCCCN(C)C)c(CCC(C)C)s3)n(C)c2)n(C)c1
[A] 16
